The reported numbers originate from the supplement of paper PMC9170038.

# Tested on: MS2 coat protein
# TEST METHOD NOTES: apparent KD of MS2 coat protein; higher = weaker reporter binding
# EXPERIMENTAL CONTEXT: Eterna round: R107; input ligand: none
MEASUREMENT KIND: apparent KD of MS2 coat protein (nM)

* AGCACUGUGACGGCCGCCACUAUAUAUAGGGUGGUCAGGUUCAUAAUACAUGAGGAUCACCCAUGUAGGACCGGGUCUCAGUGCA [Omei Trp Exc B A v4] | 12
* GACAUUAUCUGAAGGAGCGAGGUAAAUAGGGAUGAGCAUACAUGAGGAUCACCCAUGUGGCCUCAGGUAGGUCGCAGAUGAGAUU [Exclusion Arginine B GF26] | 253
* GGCACCAGGAGAAGGAGCGUGAAGACAUGAGGAUCACCCAUGUAGAGGCCCGUACUGGGUUCGCAGGUAGGUCGCUCCUGGUGCC [#1 Same State - Arginine B Attempt #13 (HarryS)] | 22.9
